FYI, the data here is from ChEMBL document CHEMBL1811848.

Biological target: Peroxisome proliferator-activated receptor alpha (Homo sapiens)
Sequence (Q07869 whole entry): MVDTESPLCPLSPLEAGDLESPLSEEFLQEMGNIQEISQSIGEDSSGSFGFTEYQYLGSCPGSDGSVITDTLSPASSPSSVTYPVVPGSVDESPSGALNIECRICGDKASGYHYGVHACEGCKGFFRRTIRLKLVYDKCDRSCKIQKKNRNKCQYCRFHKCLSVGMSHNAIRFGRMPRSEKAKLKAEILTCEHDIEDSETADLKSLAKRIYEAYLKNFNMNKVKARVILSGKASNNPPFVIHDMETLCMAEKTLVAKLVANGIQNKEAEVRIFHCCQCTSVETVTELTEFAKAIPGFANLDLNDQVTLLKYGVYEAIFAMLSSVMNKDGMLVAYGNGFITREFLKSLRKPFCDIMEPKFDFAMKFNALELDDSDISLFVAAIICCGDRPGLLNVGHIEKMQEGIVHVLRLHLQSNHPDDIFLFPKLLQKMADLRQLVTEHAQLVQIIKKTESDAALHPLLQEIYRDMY
Assay: Transactivation of human PPARalpha expressed in human HepG2 cells co-transfected with PPRE3-TK-Luc by luciferase reporter gene assay
Reported Endpoint: EC50 (nM)

Below, 4 molecules whose answers are already recorded.
1. CCO[C@@H](Cc1ccc(OCCc2nc(-c3ccc(C)s3)oc2C)cc1)C(=O)O : 0.00031
2. CCO[C@@H](Cc1ccc(OCc2nc(-c3ccsc3)oc2C)cc1)C(=O)O : 3
3. CCO[C@@H](Cc1ccc(OCCc2nc(-c3ccc(-c4ccccc4)s3)oc2C)cc1)C(=O)O : 22
4. CCO[C@@H](Cc1ccc(OCCc2nc(-c3ccsc3)oc2C)cc1)C(=O)O : 1.9

I = CCO[C@@H](Cc1ccc(OCc2nc(-c3cccs3)oc2C)cc1)C(=O)O
II = CCO[C@@H](Cc1ccc(OCCc2nc(-c3cccs3)oc2C)cc1)C(=O)O
III = CCO[C@@H](Cc1ccc(OCc2nc(-c3ccc(-c4ccccc4)s3)oc2C)cc1)C(=O)O
Rank order required: EC50, descending. Put the labels in the order asked and list them.
III, II, I
(III: 20 nM, II: 0.1 nM, I: 0.026 nM)
